Biological target: rat mGlu2 (Rattus norvegicus (Rat))
Sequence (P31421 19-872): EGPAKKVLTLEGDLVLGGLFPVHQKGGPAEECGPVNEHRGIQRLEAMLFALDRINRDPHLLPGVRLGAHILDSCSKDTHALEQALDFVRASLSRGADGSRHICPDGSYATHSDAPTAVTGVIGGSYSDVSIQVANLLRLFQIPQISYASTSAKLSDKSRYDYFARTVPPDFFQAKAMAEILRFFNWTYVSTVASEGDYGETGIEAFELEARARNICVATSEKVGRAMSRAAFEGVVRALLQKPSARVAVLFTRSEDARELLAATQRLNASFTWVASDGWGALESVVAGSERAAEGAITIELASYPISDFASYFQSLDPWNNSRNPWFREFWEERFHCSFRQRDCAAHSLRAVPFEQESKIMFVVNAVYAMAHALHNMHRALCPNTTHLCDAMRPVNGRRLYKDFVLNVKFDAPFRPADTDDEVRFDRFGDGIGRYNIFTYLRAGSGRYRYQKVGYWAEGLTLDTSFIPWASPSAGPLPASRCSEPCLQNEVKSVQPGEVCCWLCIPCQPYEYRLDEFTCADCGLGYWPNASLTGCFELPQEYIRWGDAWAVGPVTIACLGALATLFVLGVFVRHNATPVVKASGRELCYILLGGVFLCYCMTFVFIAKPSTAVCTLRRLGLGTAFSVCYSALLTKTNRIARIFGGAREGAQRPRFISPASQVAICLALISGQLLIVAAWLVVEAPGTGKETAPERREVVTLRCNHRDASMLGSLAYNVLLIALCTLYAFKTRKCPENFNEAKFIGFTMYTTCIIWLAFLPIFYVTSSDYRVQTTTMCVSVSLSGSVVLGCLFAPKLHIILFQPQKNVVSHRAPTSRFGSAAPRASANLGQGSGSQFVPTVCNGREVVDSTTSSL
Test: mGlu2 Ca2+ flux assay
Details: Gα15 HEK293 cells stably expressing rat mGlu2; glutamate EC80; >10,000 = no plateau; >30,000 = no measurable activity
pIC50: −log10 of the molar value.
Listed here are compounds together with their documented pIC50.
ASSAY READOUT: pIC50

COMPOUND: N#Cc1cc(-c2ccc(F)cc2)c(NCCN2CCOCC2)cn1
MEASURED ON: rat mGlu2 (Rattus norvegicus (Rat))
ASSAY READOUT: pIC50
ENDPOINT VALUE: < 5.00
--
COMPOUND: CC1CN(CCCOc2cnc(C#N)cc2-c2ccc(F)cc2)CCO1 (stereo not drawn)
MEASURED ON: rat mGlu2 (Rattus norvegicus (Rat))
ASSAY READOUT: pIC50
ENDPOINT VALUE: < 4.52
--
COMPOUND: Cc1ccc(COc2cnc(C(N)=O)cc2-c2ccc(C(F)(F)F)nc2)cn1
MEASURED ON: rat mGlu2 (Rattus norvegicus (Rat))
ASSAY READOUT: pIC50
ENDPOINT VALUE: < 4.52
--
COMPOUND: COc1ccc(COc2cnc(C#N)cc2-c2ccc(F)cc2)cn1
MEASURED ON: rat mGlu2 (Rattus norvegicus (Rat))
ASSAY READOUT: pIC50
ENDPOINT VALUE: < 4.52
--
COMPOUND: N#Cc1cc(-c2ccc(F)cc2)c(NCCCN2CCOCC2)cn1
MEASURED ON: rat mGlu2 (Rattus norvegicus (Rat))
ASSAY READOUT: pIC50
ENDPOINT VALUE: < 5.00
--
COMPOUND: N#Cc1cc(-c2ccc(F)cc2)c(OCc2ccnc(C(F)(F)F)c2)cn1
MEASURED ON: rat mGlu2 (Rattus norvegicus (Rat))
ASSAY READOUT: pIC50
ENDPOINT VALUE: < 5.00
--
COMPOUND: Cc1cc(COc2cnc(C(N)=O)cc2-c2cnn(C)c2)ccn1
MEASURED ON: rat mGlu2 (Rattus norvegicus (Rat))
ASSAY READOUT: pIC50
ENDPOINT VALUE: < 5.00
--
COMPOUND: NC(=O)c1cc(-c2ccc(F)cc2)c(OCCN2CCOCC2)cn1
MEASURED ON: rat mGlu2 (Rattus norvegicus (Rat))
ASSAY READOUT: pIC50
ENDPOINT VALUE: < 5.00
--
COMPOUND: Cc1ncc(OCCCOc2cnc(C(N)=O)cc2-c2ccc(F)cc2)cn1
MEASURED ON: rat mGlu2 (Rattus norvegicus (Rat))
ASSAY READOUT: pIC50
ENDPOINT VALUE: < 5.00
